Collected Growth Rate values appear next to each entry.
Tested on: HEK-293T
Test name: Incucyte cell viability with HEK293T; note: unitless GR value; below 1 slowed growth and below 0 cell loss
Type: toxicity, cell-based
Cond: human, 6 h, 10 µM, compound concentration 10 uM, replicate number 1
Reply with the value as a number alone.

>  <Compound>
Cc1cccc(F)c1C(=O)Nc1cnc(-c2cc3c(cc2Cl)OC(F)(F)O3)cn1

>  <Growth Rate>
-0.06

$$$$
>  <Compound>
CCN1C(=O)/C(=C(\NC2CCN(C)CC2)c2ccc3c(c2)OCO3)c2cc(C(C)=O)ccc21

>  <Growth Rate>
0.44

$$$$
>  <Compound>
CCOC(=O)N1CCC(CN(Cc2ccc(Cl)cc2)Cc2ccc([N+](=O)[O-])s2)C1 (centres undefined)

>  <Growth Rate>
0.39

$$$$
>  <Compound>
NCC1CCC(CNc2nc(NCc3ccccc3OC(F)(F)F)ncc2[N+](=O)[O-])CC1 (centres undefined)

>  <Growth Rate>
-0.6

$$$$
>  <Compound>
CCCOc1cnc(CN/C=C2\C(=O)NC(=O)c3ccc(I)cc32)cc1O

>  <Growth Rate>
-0.81

$$$$
>  <Compound>
CN(C)C(=O)Cn1cc(-c2ccc(-c3cncc4ccccc34)cc2)cn1

>  <Growth Rate>
0.92

$$$$
>  <Compound>
Cc1ccc2c(NS(=O)(=O)c3ccccc3Cl)cccc2c1Oc1ncccc1-c1ccnc(N[C@H]2CCCNC2)n1.Cl

>  <Growth Rate>
0.95

$$$$
>  <Compound>
CC(=O)Nc1ncc(CN2CCC[C@H](Cc3cc(C)nc(C)c3)C2)s1

>  <Growth Rate>
0.82

$$$$
>  <Compound>
CCC(=O)N[C@@H]1CC[C@H](C(=O)N(C)c2ccc(-c3nc4ccccc4o3)cc2)C1

>  <Growth Rate>
-0.34

$$$$
>  <Compound>
CCC(=O)N[C@H]1CC[C@@H](C(=O)N(C)c2ccc(-c3nc4ccccc4o3)cc2)C1

>  <Growth Rate>
0.1

$$$$

Looking for the measured Growth Rate of `CC/C(=C(\c1ccc(O)cc1)c1ccc(OCCN(C)C)cc1)c1ccccc1` , can you help? -0.92

Form field: reported Growth Rate of `Cc1ccc(NC(=O)c2ccc(CN3CC[C@H](N(C)C)C3)c(C(F)(F)F)c2)cc1Nc1nccc(-c2cncnc2)n1` 0.57

Query (compound): `CCOC(=O)c1cc2cc(-c3cc(C(=O)NCc4ccc(C(=O)O)cc4)nn3C)ccc2[nH]1` ; field requested: Growth Rate 0.88

Please report the recorded Growth Rate for `N=C(N)Nc1cc(C2CCNCC2)cc(C(F)(F)F)c1.O=C(O)C(F)(F)F.O=C(O)C(F)(F)F` . 0.69

# get_value(readout='Growth Rate', item= `COc1cc2ncnc(Nc3ccc(F)c(Cl)c3)c2cc1OCCN(C)C[C@H](C)O` ) 0.36

Requested read-out: Growth Rate. Entry: `NC(=O)c1cc2c(-c3ccc(C(=O)NCc4ccnc(Cl)c4)s3)cccc2s1` -0.51

Entry `CC(C)(C[C@H]1CN(S(=O)(=O)c2cccc(C(F)(F)F)c2)c2cc(-c3cc(F)cc(OC(F)F)c3)ccc2O1)C(=O)O` has what Growth Rate? 0.88

Recorded Growth Rate for `Nc1ncc2c(n1)-c1c([nH]c3ccc(C4=CCOCC4)cc13)CCC2` , please? -0.33

Endpoint output: Growth Rate of `COc1c(OCCCN2CCOCC2)ccc2c1N=C(NC(=O)c1cnc(N)nc1)N1CCN=C21` . Value? 0.09

What does the data say about its Growth Rate? Entry: `CC(=O)Nc1nc(CN2CCC[C@H](Cc3cc(C)nc(C)c3)C2)cs1` 0.52
